Measured values drawn from PubChem BioAssay (NCI) for this set.

- Tested on: OVCAR-3 ovarian
- PROTOCOL_DETAILS: NCI-60 one-dose screen, 48 h
- CONDITION: 10 µM unless noted
The panel holds about 83,000 compounds, 20% with a hit somewhere; the sample as a whole holds those more often. The source made the active and inactive calls. The calls were made as follows: active = growth percent below 10; inactive = the rest.
Classes used: active, inactive

Cc1c(N)nc([C@H](CC(N)=O)NC[C@H](N)C(N)=O)nc1C(=O)N[C@H](C(=O)N[C@H](C)[C@@H](O)[C@H](C)C(=O)N[C@H](C(=O)NCCc1nc(-c2nc(C(=O)NCCC[S+](C)C)cs2)cs1)[C@@H](C)O)C(OC1OC(CO)C(O)C(O)C1OC1OC(CO)C(O)C(OC(N)=O)C1O)c1cnc[nH]1 (some centres undefined)	inactive
CC[C@@]1(O)C[C@H](OC2CC(N(C)C)C(OC3CC(O)C(OC4CCC(=O)C(C)O4)C(C)O3)C(C)O2)c2c(cc3c(c2O)C(=O)c2c(O)ccc(O)c2C3=O)[C@H]1C(=O)OC (some centres undefined)	active
COC1CC(CC2CCC(C)C(C(C)C(=O)O)O2)OC2(OC(C)(C3CCC(C)(C4OC(C5OC(O)(CO)C(C)CC5C)CC4C)O3)CC2C)C1C (centres undefined)	active
C[C@H]1CCC/C=C/[C@@H]2C[C@H](O)C[C@H]2[C@H](O)/C=C/C(=O)O1	active
